# test method notes: in vivo
# condition info: ip, i.p. administration in the mouse, buffered with sodium bicarbonate at pH 6, read-out: DL50 (the source's name)
property name: LD50

Value of LD50 reported for the compound N[C@@H](CSCC(=O)O)C(=O)O is 5180 mg/kg

Form field LD50, entry CC(SCC(=O)O)C(=O)NCC(=O)O (stereo not drawn) : 5420 mg/kg

LD50 in this record for O=C(O)CNC(=O)CCSCC(=O)O [beta-(S-carboxvmethvl)-propionvl-qlvcine] : 5500 mg/kg

The measured values listed here are drawn from patent EP0015544A2.
